target: human Aurora Kinase A - serine/threonine-protein Kinase 6 (AurA), AURKA (gene 6790) (UniProt O14965); assay: NVS_ENZ_hAurA: NovaScreen (NVS) Enzymatic Assay for human Aurora Kinase A - serine/threonine-protein Kinase 6 (AurA) (AID 2283142)
Sequence (O14965 whole entry, looked up): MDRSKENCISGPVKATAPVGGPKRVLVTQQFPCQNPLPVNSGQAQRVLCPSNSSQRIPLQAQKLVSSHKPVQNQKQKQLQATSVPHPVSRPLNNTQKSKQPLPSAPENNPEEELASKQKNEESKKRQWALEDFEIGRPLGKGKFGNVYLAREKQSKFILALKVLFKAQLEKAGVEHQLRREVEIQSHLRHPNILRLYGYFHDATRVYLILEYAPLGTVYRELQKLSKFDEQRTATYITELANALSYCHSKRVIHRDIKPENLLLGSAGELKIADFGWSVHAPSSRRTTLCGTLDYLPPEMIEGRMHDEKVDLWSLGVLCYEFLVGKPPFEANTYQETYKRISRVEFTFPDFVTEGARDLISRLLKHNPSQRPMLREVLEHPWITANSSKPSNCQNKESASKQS
Records with an inconclusive call do not appear. Activity calls are given as the source filed them. The calls were made as follows: active = hit-call score of the fitted dose curve at least 0.9, where 1 is the maximum; inconclusive = response in the unintended direction; inactive = score below 0.9.
Outcomes: TRUE = active, FALSE = inactive

CC1=C2C[C@H]3[C@@H](CC=C4C[C@@H](O)CC[C@@]43C)[C@@H]2CC[C@]12O[C@@H]1C[C@H](C)CN[C@H]1[C@H]2C : FALSE
O=C(O)C(F)(F)C(F)(F)C(F)(F)C(F)(F)C(F)(F)C(F)(F)C(F)(F)C(F)(F)F : TRUE
CC(C)C(=O)OCC(C)(C)C(OC(=O)C(C)C)C(C)C (centres undefined) : FALSE
CCCN(CCC)N=O : FALSE

* * *

read-out: CYP2C8 (gene 1558); experiment: LTEA_HepaRG_CYP2C8: Life Technologies and Expression Analysis (LTEA) Assay for CYP2C8 using HepaRG (AID 2283483); conditions: mRNA level, 48 h; actives raise or lower the signal
Calls of active or inactive are those of the source. Rule for the calls: active = hit-call score of the fitted dose curve at least 0.9, where 1 is the maximum; inactive = score below 0.9.
Outcomes: Yes (active), No (inactive)

C[C@]12CCC(=O)C=C1CC[C@@H]1[C@@H]2CC[C@]2(C)C(=O)CC[C@@H]12 : No
Oc1ccc(Cl)cc1Cl : No
O=S(=O)(O)C(F)(F)C(F)(F)C(F)(F)C(F)(F)C(F)(F)C(F)(F)F : Yes
COS(=O)(=O)OC : No
CCC(C)(c1ccc(O)cc1)c1ccc(O)cc1 : No
CC#Cc1cc(C)nc(Nc2ccccc2)n1 : Yes
ClC(Cl)=C(c1ccc(Cl)cc1)c1ccc(Cl)cc1 : Yes
CCC(=O)O[C@H]1CC[C@H]2[C@@H]3CCC4=CC(=O)CC[C@]4(C)[C@H]3CC[C@]12C : No
CC(c1ccc(O)cc1)(c1ccc(O)cc1)c1ccc(O)cc1 : No
CCCCCCCCCc1ccc(O)cc1 : No
Cc1ccccc1O : No
O=S(=O)(O)C(F)(F)C(F)(F)C(F)(F)C(F)(F)F : No
CC(C)(O)C(=O)Nc1ccc([N+](=O)[O-])c(C(F)(F)F)c1 : No
Oc1ccc(C(c2ccc(O)cc2)(C(F)(F)F)C(F)(F)F)cc1 : No
Cc1cc2c3c(c1)C(c1ccccc1)=N[C@@H](NC(=O)c1ccncc1)C(=O)N3CC2 : No
C=CC(=O)NCNC(=O)C=C : No
CC1=C2C[C@H]3[C@@H](CC=C4C[C@@H](O)CC[C@@]43C)[C@@H]2CC[C@]12O[C@@H]1C[C@H](C)CN[C@H]1[C@H]2C : No
ClC1=C(Cl)[C@]2(Cl)[C@@H]3[C@H]4C[C@H]([C@@H]5O[C@H]45)[C@@H]3[C@@]1(Cl)C2(Cl)Cl : No
Nn1cnnc1 : No
CCC(C)(CC)c1cc(NC(=O)c2c(OC)cccc2OC)on1 : Yes
O=C(NC(=O)c1cc(F)c(F)cc1Cl)Nc1cc(F)ccc1N1CCC(C(=O)O)CC1 : No
CCCCCCCCCC[N+](C)(C)CCCCCCCCCC : No
CCCCCCOC(=O)c1ccccc1C(=O)OCCCCCC : No
CN(C)CCO : No

The values you see were collected from PubChem BioAssay (EPA / NIEHS).
